Each entry below carries its recorded MIC Hs.
test system: Histophilus somnus (Hs); type: cell-based
No end group written: not given here.
Property measured: MIC Hs (µg/mL)

                                  substance  units_label  censoring_sign  reported
0  QLARLARVVWGL-NH2 [Peptide 3010, QLARLARVVWGL]        µg/mL               =        64
1  LWQLWLKLKLKG-NH2 [Peptide 3013, LWQLWLKLKLKG]        µg/mL               =         2
2  LAGLIVKWAGVR-NH2 [Peptide 3017, LAGLIVKWAGVR]        µg/mL               >        64
3  AVKWLGWILAKK-NH2 [Peptide 3016, AVKWLGWILAKK]        µg/mL               =        16
4  KIVIRIILQVIK-NH2 [Peptide 3015, KIVIRIILQVIK]        µg/mL               >        64
5  AVAKWALKLWKQ-NH2 [Peptide 3009, AVAKWALKLWKQ]        µg/mL               =        64

---

Each entry below carries its recorded MBIC.
system: Streptococcus suis (Ss); assay type: cell-based
No end group written: not given here.
Property measured: MBIC (µg/mL)

>>> print(df.to_string())
                                  substance  units_label  censoring_sign  reported
0  AVKWLGWILAKK-NH2 [Peptide 3016, AVKWLGWILAKK]        µg/mL               =        32
1  QLARLARVVWGL-NH2 [Peptide 3010, QLARLARVVWGL]        µg/mL               >        64
2  LWQLWLKLKLKG-NH2 [Peptide 3013, LWQLWLKLKLKG]        µg/mL               =        16
3  AVAKWALKLWKQ-NH2 [Peptide 3009, AVAKWALKLWKQ]        µg/mL               =        16
4  LAGLIVKWAGVR-NH2 [Peptide 3017, LAGLIVKWAGVR]        µg/mL               >        64
5  KIVIRIILQVIK-NH2 [Peptide 3015, KIVIRIILQVIK]        µg/mL               =        64

---

system: Streptococcus suis (Ss); type: cell-based
No end group written: not given here.
Property measured: MIC Ss (µg/mL)

In [3]: df
Out[3]:
                                  substance            target_system  property_measured  censoring_sign  reported
0  QLARLARVVWGL-NH2 [Peptide 3010, QLARLARVVWGL]  Streptococcus suis (Ss)             MIC Ss               >        64
1  LAGLIVKWAGVR-NH2 [Peptide 3017, LAGLIVKWAGVR]  Streptococcus suis (Ss)             MIC Ss               >        64
2  AVAKWALKLWKQ-NH2 [Peptide 3009, AVAKWALKLWKQ]  Streptococcus suis (Ss)             MIC Ss               >        64
3  AVKWLGWILAKK-NH2 [Peptide 3016, AVKWLGWILAKK]  Streptococcus suis (Ss)             MIC Ss               =        32
4  KIVIRIILQVIK-NH2 [Peptide 3015, KIVIRIILQVIK]  Streptococcus suis (Ss)             MIC Ss               =        64
5  LWQLWLKLKLKG-NH2 [Peptide 3013, LWQLWLKLKLKG]  Streptococcus suis (Ss)             MIC Ss               =        64
